Tested on: L1210 leukemia ip in BDF1 mice, survival T/C
Test description: NCI In Vivo Anticancer Drug Screen. Data for tumor model L1210 Leukemia (intraperitoneal) in B6D2F1 (BDF1) mice
Experimental parameters: endpoint: mean survival time; dose: 400.0 mg/kg/injection; schedule: Q04DX003 (ip); vehicle: Klucel (hydroxypropylcellulose) (HPC); higher = longer survival
Inconclusive results and toxic doses are left out.
# Lookup of reported T/C keyed by entry

Known T/C results, listed for orientation:
Compound	Value reported
CCOc1cccc2c1OC(CN1CCC3(CC1)C(=O)NCN3c1ccccc1)CO2 (centres undefined)	115 % of control
OCC1(CO)CCCCC1	105 % of control
CCC(CO)Nc1nc2ccc([N+](=O)[O-])cc2c2ccccc12 (centres undefined)	102 % of control
CCC(Sc1ccccc1[N+](=O)[O-])[N+](=O)[O-] (centres undefined)	100 % of control
CN(C)C(=O)NS(=O)(=O)c1ccc(Cl)cc1	95 % of control
CCOC(=O)Cc1ccc2c(c1)sc(=S)n2C	92 % of control

Request: Value lookup for T/C; key = CC(=O)Nc1c(C)cc(C)cc1C
Response: 104 % of control

Request: Consider the compound shown here: CN(C)c1ncnc(N)n1 What is its recorded T/C?
Response: 97 % of control

Request: Give the measured T/C of CCOC(=O)C1CCC(=O)N1 (centres undefined) .
Response: 98 % of control

Request: Give its T/C value. Item: BrCCCC1CCCCC1
Response: 105 % of control

Request: Looking for the measured T/C of [N-]=[N+]=C1C(=O)NN=C1c1ccccc1 , can you help?
Response: 110 % of control

Request: I am curious: what T/C value has been reported for O=S(=O)(Nc1cccc(C(F)(F)F)c1)c1ccccc1 ?
Response: 95 % of control

Request: Which T/C value is on record for Cc1ccccc1N(C)C(=S)c1ccc(Cl)cc1 ?
Response: 96 % of control

Request: Using the record for CC1(C)CC(=O)CC(C)(CN)C1 (centres undefined) , report its T/C.
Response: 100 % of control

* * *

Reported T/C values are given for each entry in this list.
Tested on: L1210 leukemia ip in BDF1 mice, survival T/C
Test description: NCI In Vivo Anticancer Drug Screen. Data for tumor model L1210 Leukemia (intraperitoneal) in B6D2F1 (BDF1) mice
Experimental parameters: endpoint: mean survival time; dose: 200.0 mg/kg/injection; schedule: Q01DX001 (ip); vehicle: saline; higher = longer survival
Inconclusive results and toxic doses are left out.

# annotated cases, reported T/C shown
Compound	T/C
CCCCCN(C(=N)CCCC)S(=O)(=O)c1ccccc1	95 % of control
O=C(O)C1=CC2C=C(Cl)C=CC2OC1=O (configuration not stated)	100 % of control

Request: // lookup T/C | system=L1210 leukemia ip in BDF1 mice, survival T/C | key= CC1=C2[C@H]3OC(=O)[C@@H](C)[C@@H]3CC[C@@]2(C)C=C/C1=N\O
Response: 98 % of control

Request: Provide value of T/C for this record tested with L1210 leukemia ip in BDF1 mice, survival T/C: CCOC(=O)C(C(=O)OCC)c1cccc(Cl)c1
Response: 103 % of control

Request: Query the reported T/C for L1210 leukemia ip in BDF1 mice, survival T/C; item: CN(C)c1nc(N)nc(Nc2ccc(Br)cc2)c1N=O
Response: 116 % of control

Request: Enter reported T/C observed with L1210 leukemia ip in BDF1 mice, survival T/C for COc1cc2c(cc1OC)C(Cc1ccc(O)cc1)N(C)CC2 (configuration not stated)
Response: 91 % of control

Request: Recall the recorded T/C for Cc1ccc(N=Nc2c(N)nc(N)[nH]c2=O)cc1C with L1210 leukemia ip in BDF1 mice, survival T/C and state it.
Response: 96 % of control

Request: Recorded T/C for COP(=O)(OC)c1nc(P(=O)(OC)OC)nc(P(=O)(OC)OC)n1 with L1210 leukemia ip in BDF1 mice, survival T/C, please?
Response: 93 % of control

Request: Find T/C (L1210 leukemia ip in BDF1 mice, survival T/C) for the entry COCCCN1CC2CCCC1O2 (configuration not stated)
Response: 97 % of control

Request: Form field: T/C recorded for COc1cc2c(cc1OC)C(NC(C)C)CCCC2 (configuration not stated) with L1210 leukemia ip in BDF1 mice, survival T/C (enter value)
Response: 95 % of control

Request: Query the reported T/C for L1210 leukemia ip in BDF1 mice, survival T/C; item: CCCCCCc1cc2c(cc1CCCC)CCC2
Response: 98 % of control

Request: Kindly state the measured T/C obtained for C/C=C/C(=O)C12CCCCCCCCCC(=C1N1CCCCC1)C(=O)CC2C (configuration not stated) with L1210 leukemia ip in BDF1 mice, survival T/C.
Response: 98 % of control

Request: Can you look up T/C on L1210 leukemia ip in BDF1 mice, survival T/C for CC(C)OC(=S)SSC(=S)OC(C)C ?
Response: 100 % of control

Request: Any idea what T/C came out for Cc1nc(N)c2c(ncn2C2OC(CO)C(O)C2O)n1 (configuration not stated) on L1210 leukemia ip in BDF1 mice, survival T/C?
Response: 108 % of control

Request: What is its T/C for L1210 leukemia ip in BDF1 mice, survival T/C? Entry: O=S(=O)(Cc1ccccc1)C(Cl)c1ccccc1 (configuration not stated)
Response: 101 % of control

Request: Under L1210 leukemia ip in BDF1 mice, survival T/C: T/C value of CCOC(=O)C(C(C)=O)C(c1ccc(O)cc1)C(C(C)=O)C(=O)OCC (configuration not stated) ?
Response: 86 % of control

Request: Lookup: T/C / L1210 leukemia ip in BDF1 mice, survival T/C / CCCCCOC(=O)C(C(=O)OCCCCC)(C(=O)OCCCCC)C(=O)OCCCCC
Response: 104 % of control

Request: Look up T/C with L1210 leukemia ip in BDF1 mice, survival T/C for this compound: O=C1CSC2=NCCN12
Response: 99 % of control

Request: Give L1210 leukemia ip in BDF1 mice, survival T/C T/C for O=Nc1c(N=O)c(N=O)c(N=O)c(N=O)c1N=O
Response: 100 % of control

Request: Record lookup: for L1210 leukemia ip in BDF1 mice, survival T/C, what T/C belongs to Cc1ccc(C2(C)CC/C(=N\NC(=O)c3ccccc3)c3cc(C)c(C)cc32)cc1C (configuration not stated) ?
Response: 98 % of control

Data origin: PubChem BioAssay AID248
